Test: Half life in Sprague-Dawley rat serum at 10 ug/ml by LC-MS/MS analysis
Type: ADME, cell-free
measure: half-life at 10 ug/ml

Determine its reported half-life at 10 ug/ml: CC(C)C[C@H](NC(=O)CNC(=O)[C@H](Cc1ccccc1)NC(=O)[C@H](CO)NC(=O)[C@H](CC(N)=O)NC(=O)[C@H](Cc1c[nH]c2ccccc12)NC(=O)[C@H](CC(N)=O)NC(=O)[C@@H](N)Cc1ccc(O)cc1)C(=O)N[C@@H](CCCNC(=N)N)C(=O)N[C@@H](Cc1ccccc1)C(N)=O
< 5 min

###

Biological target: KiSS-1 receptor (Homo sapiens)
Sequence (Q969F8 whole entry): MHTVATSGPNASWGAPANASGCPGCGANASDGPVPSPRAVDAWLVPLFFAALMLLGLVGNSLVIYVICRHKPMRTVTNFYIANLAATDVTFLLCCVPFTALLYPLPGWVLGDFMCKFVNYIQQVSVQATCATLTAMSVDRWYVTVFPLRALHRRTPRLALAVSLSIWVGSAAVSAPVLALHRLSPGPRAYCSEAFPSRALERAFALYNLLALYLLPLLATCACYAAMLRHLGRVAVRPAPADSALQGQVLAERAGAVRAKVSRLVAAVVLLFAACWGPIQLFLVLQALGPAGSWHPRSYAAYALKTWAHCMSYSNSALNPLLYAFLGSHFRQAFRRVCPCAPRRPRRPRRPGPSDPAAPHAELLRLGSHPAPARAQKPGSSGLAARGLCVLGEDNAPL
Test: Agonist activity at human KISS1R expressed in CHO cells assessed as increase in calcium mobilization measured at 2 secs interval for 2 mins by fluo-4 NW dye based FLIPR assay
Square brackets hold non-standard residues; d marks the D form. Peptide text beside a SMILES is read from it. * marks the point of attachment. Propanoyl(3-indol-3-yl) = O=C(CCc1c[nH]c2ccccc12)*; Arg(Me) = CNC(=N)NCCC[C@H](N)C(=O)O; azaGly = NNC(=O)O
measure: pEC50
Recall that pEC50 is obtained by taking minus log10 of the concentration measured in molar.

compound	test-target	pEC50
CNC(=N)NCCC[C@H](NC(=O)[C@H](CC(C)C)NC(=O)NNC(=O)[C@H](Cc1ccccc1)NC(=O)[C@H](CO)NC(=O)[C@H](CC(N)=O)NC(=O)CCc1c[nH]c2ccccc12)C(=O)N[C@@H](Cc1ccccc1)C(N)=O ({Propanoyl(3-indol-3-yl)}-NSF[azaGly]L[Arg(Me)]F-NH2)	KiSS-1 receptor (Homo sapiens)	9.89
CNC(=N)NCCC[C@H](NC(=O)[C@H](CC(C)C)NC(=O)NNC(=O)[C@H](Cc1ccccc1)NC(=O)c1c[nH]cn1)C(=O)N[C@@H](Cc1c[nH]c2ccccc12)C(N)=O	KiSS-1 receptor (Homo sapiens)	9.62

Now examine the next entry.
Using the record for CCC(=O)N[C@@H](Cc1ccccc1)C(=O)NNC(=O)N[C@@H](CC(C)C)C(=O)N[C@@H](CCCNC(=N)NC)C(=O)N[C@@H](Cc1c[nH]c2ccccc12)C(N)=O , state its measured pEC50.
9.89
